I'd appreciate it if you could supply Remaining activity [%] values for the items below.
molecular target: VLP2 (virus-like particles, capsid protein particles of AAV serotype 2) (AAV serotype 2 (AAV2)) (UniProt P03135); assay: ELISA on immobilised VLP2 (purified protein, 5 µg/mL); A450 after 1:1 1 M NaOH with 1 mM CaCl2, 30°C, 45 min divided by A450 at 0 time
Sequence (P03135 whole entry): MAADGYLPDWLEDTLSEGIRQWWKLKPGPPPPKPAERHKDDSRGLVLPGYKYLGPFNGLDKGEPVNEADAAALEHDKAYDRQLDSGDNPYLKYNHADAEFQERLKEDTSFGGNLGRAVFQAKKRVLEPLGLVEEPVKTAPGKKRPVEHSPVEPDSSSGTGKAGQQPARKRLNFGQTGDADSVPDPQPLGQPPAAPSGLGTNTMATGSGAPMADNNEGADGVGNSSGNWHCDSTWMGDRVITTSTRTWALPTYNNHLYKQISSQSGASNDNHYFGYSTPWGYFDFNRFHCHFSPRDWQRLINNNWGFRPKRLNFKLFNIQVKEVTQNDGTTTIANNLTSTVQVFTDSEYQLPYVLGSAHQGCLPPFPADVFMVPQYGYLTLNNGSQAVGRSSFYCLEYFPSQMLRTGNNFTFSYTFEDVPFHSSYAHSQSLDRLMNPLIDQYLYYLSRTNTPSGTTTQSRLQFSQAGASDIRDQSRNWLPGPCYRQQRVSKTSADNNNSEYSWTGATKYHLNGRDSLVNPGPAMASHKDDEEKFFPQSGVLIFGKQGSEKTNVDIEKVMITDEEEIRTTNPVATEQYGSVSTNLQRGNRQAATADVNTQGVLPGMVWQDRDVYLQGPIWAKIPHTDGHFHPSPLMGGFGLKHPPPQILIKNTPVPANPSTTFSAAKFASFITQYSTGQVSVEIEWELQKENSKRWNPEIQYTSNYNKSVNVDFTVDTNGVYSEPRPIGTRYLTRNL
# unit: % | format: bare number

(Q) I'd like to know its Remaining activity [%]. The binder in question is AVR29b (AVR25c with G314D, I366F, V394A, K455R) (receptor) MGSADESDQITLPKHEAQLKVYVLLVPPKGEASTYDWQLITHPRDYSGEMEGEHSQFLKLSNLTPGLYEYRAVVEGQNAHSEGYANVTVEPGPRKNRPPIAIVSPQFQEISLPTTSAVIDGSQSTDDDKIVQYHWEELKGPLREERISEDTPILKLSNLVPGNYTFRLTVVDTDGATDSTTADLTVNKAVDHHHHHH
(A) 1.31

(Q) What do you get for AVR25c (AVR25a with K467N) (receptor) MGSAGESDQITLPKHEAQLKVYVLLVPPKGEASTYDWQLITHPRDYSGEMEGEHSQILKLSNLTPGLYEYRAVVEGQNAHSEGYVNVTVEPGPRKNRPPIAIVSPQFQEISLPTTSAVIDGSQSTDDDKIVQYHWEELKGPLREEKISEDTPILKLSNLVPGNYTFRLTVVDTDGATDSTTADLTVNKAVDHHHHHH ?
(A) 0

(Q) What do you get for AVR27b (AVR25c with I366F, T474R) (receptor) MGSAGESDQITLPKHEAQLKVYVLLVPPKGEASTYDWQLITHPRDYSGEMEGEHSQFLKLSNLTPGLYEYRAVVEGQNAHSEGYVNVTVEPGPRKNRPPIAIVSPQFQEISLPTTSAVIDGSQSTDDDKIVQYHWEELKGPLREEKISEDTPILKLSNLVPGNYRFRLTVVDTDGATDSTTADLTVNKAVDHHHHHH ?
(A) 4.54

(Q) What do you get for AVR27c (AVR25c with V394A, T474R) (receptor) MGSAGESDQITLPKHEAQLKVYVLLVPPKGEASTYDWQLITHPRDYSGEMEGEHSQILKLSNLTPGLYEYRAVVEGQNAHSEGYANVTVEPGPRKNRPPIAIVSPQFQEISLPTTSAVIDGSQSTDDDKIVQYHWEELKGPLREEKISEDTPILKLSNLVPGNYRFRLTVVDTDGATDSTTADLTVNKAVDHHHHHH ?
(A) 1.73

(Q) What do you get for AVR29c (AVR25c with I366F, V394A, K455R, K497E) (receptor) MGSAGESDQITLPKHEAQLKVYVLLVPPKGEASTYDWQLITHPRDYSGEMEGEHSQFLKLSNLTPGLYEYRAVVEGQNAHSEGYANVTVEPGPRKNRPPIAIVSPQFQEISLPTTSAVIDGSQSTDDDKIVQYHWEELKGPLREERISEDTPILKLSNLVPGNYTFRLTVVDTDGATDSTTADLTVNEAVDHHHHHH ?
(A) 1.93
